Tested on: PPARg DBDmut:RXRa IVT, anti-PPARg (DBD mutation: PPARg1 K132A/R137A, NR concentration 270 nM, RXRa partner concentration 90 nM)
Assay: PBM binding z-score (relative to random genomic background probes); higher = stronger binding; sequences stand for … in GC…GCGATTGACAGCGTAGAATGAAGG
Catalogue of sequences with associated PBM binding z-score
propertyLabel: PBM binding z-score

>>> valueobserved("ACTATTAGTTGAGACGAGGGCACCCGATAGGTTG")
0.77
>>> valueobserved("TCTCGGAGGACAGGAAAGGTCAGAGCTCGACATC")
-0.54
>>> valueobserved("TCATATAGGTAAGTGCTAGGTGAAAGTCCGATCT")
0.55
>>> valueobserved("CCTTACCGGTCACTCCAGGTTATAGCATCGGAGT")
-0.00194
>>> valueobserved("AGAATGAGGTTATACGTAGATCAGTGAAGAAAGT")
1.37
>>> valueobserved("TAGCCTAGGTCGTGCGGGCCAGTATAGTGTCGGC")
-0.497
>>> valueobserved("CCGACTGGGGCATAAGGTTCCCATAAGCCAGCCC")
-1.14
>>> valueobserved("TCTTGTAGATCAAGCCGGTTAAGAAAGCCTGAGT")
-0.157
>>> valueobserved("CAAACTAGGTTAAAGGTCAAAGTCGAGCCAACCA")
3.63
>>> valueobserved("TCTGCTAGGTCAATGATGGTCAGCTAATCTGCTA")
0.246
>>> valueobserved("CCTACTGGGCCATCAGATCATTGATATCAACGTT")
0.261
>>> valueobserved("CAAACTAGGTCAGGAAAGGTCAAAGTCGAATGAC")
3.96

* * *

Test system: PPARg:RXRa 270nM:90nM, anti-RXR (NR concentration 270 nM, RXRa partner concentration 90 nM)
Assay: PBM binding z-score (relative to random genomic background probes); higher = stronger binding; sequences stand for … in GC…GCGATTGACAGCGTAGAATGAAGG
Quick rule for you: PBM binding z-score at 3 or higher means criterion met, lower means criterion not met.

>>> labelvalue("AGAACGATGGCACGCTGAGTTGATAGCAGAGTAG")
"criterion not met"
>>> labelvalue("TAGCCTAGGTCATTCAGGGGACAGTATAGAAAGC")
"criterion not met"
>>> labelvalue("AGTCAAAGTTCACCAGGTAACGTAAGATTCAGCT")
"criterion met"
>>> labelvalue("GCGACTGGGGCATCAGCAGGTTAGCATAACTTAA")
"criterion not met"
>>> labelvalue("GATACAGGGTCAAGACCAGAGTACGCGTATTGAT")
"criterion met"
>>> labelvalue("CAAACTAGGTCACAGAGGTCAAATTCCGTGCGTA")
"criterion met"
>>> labelvalue("CGAACTAGGTCAAGGACAGGGAATCTCCGCACGC")
"criterion met"
>>> labelvalue("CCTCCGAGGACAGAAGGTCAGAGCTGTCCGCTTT")
"criterion not met"
>>> labelvalue("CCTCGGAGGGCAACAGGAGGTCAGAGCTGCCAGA")
"criterion not met"
>>> labelvalue("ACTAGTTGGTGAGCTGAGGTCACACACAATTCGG")
"criterion not met"
>>> labelvalue("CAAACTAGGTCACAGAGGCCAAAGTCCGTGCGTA")
"criterion met"
>>> labelvalue("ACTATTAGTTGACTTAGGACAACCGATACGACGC")
"criterion not met"

* * *

Test system: RARa homodimer (NR concentration 270 nM)
Experiment: PBM binding z-score (relative to random genomic background probes); higher = stronger binding; sequences stand for … in GC…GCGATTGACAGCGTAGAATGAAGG
propertyLabel: PBM binding z-score

>>> valueobserved("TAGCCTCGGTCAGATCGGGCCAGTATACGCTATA")
-1.52
>>> valueobserved("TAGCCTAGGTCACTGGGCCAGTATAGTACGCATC")
-0.15
>>> valueobserved("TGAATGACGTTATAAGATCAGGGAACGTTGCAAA")
0.18
>>> valueobserved("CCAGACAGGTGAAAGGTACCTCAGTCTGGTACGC")
-0.2
>>> valueobserved("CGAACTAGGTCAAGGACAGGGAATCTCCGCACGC")
0.471
>>> valueobserved("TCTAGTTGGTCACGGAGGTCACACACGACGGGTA")
1.29
>>> valueobserved("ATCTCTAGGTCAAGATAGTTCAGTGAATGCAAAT")
1.32
>>> valueobserved("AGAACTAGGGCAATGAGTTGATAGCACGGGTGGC")
0.238
>>> valueobserved("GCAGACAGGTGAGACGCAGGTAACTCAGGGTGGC")
-0.0204
>>> valueobserved("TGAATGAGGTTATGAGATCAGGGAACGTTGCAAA")
-0.0238
>>> valueobserved("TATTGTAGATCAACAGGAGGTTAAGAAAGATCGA")
0.431
>>> valueobserved("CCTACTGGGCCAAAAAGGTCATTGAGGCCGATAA")
2.12

* * *

Tested on: PPARg:RXRa (NR concentration 180 nM, RXRa partner concentration 90 nM)
Assay: PBM binding z-score (relative to random genomic background probes); higher = stronger binding; sequences stand for … in GC…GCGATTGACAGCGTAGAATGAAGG
propertyLabel: PBM binding z-score

>>> valueobserved("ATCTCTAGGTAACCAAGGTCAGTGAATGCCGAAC")
1.79
>>> valueobserved("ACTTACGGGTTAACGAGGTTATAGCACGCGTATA")
1.66
>>> valueobserved("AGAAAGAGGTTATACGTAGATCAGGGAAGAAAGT")
1.84
>>> valueobserved("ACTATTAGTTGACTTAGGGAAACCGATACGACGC")
0.843
>>> valueobserved("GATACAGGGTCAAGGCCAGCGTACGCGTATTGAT")
5.9
>>> valueobserved("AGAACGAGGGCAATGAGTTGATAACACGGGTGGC")
1.84
>>> valueobserved("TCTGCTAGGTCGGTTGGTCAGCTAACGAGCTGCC")
-1.04
>>> valueobserved("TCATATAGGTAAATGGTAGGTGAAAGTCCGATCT")
1.39
>>> valueobserved("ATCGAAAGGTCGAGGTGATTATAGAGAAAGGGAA")
3.24
>>> valueobserved("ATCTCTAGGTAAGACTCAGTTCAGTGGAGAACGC")
0.00731
>>> valueobserved("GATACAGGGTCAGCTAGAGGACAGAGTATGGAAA")
3.93
>>> valueobserved("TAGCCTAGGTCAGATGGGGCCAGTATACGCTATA")
0.972

* * *

Catalogue of sequences with associated PBM binding z-score
System: PPARg DBDmut IVT, anti-PPARg (DBD mutation: PPARg1 K132A/R137A, NR concentration 270 nM)
Assay: PBM binding z-score (relative to random genomic background probes); higher = stronger binding; sequences stand for … in GC…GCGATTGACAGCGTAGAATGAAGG
propertyLabel: PBM binding z-score

>>> valueobserved("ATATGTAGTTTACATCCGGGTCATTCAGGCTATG")
1.65
>>> valueobserved("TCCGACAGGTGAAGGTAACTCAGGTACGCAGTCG")
-0.742
>>> valueobserved("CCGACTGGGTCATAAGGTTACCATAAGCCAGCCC")
0.517
>>> valueobserved("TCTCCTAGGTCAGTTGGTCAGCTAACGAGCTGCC")
0.66
>>> valueobserved("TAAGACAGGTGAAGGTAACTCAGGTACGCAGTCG")
0.465
>>> valueobserved("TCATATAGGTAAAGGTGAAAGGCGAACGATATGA")
1.05
>>> valueobserved("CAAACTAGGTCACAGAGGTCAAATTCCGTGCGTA")
3.55
>>> valueobserved("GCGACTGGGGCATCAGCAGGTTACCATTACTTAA")
-0.712
>>> valueobserved("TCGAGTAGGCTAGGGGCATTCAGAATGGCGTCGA")
-1.61
>>> valueobserved("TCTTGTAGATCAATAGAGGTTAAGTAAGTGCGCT")
0.692
>>> valueobserved("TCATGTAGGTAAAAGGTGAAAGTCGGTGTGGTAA")
0.765
>>> valueobserved("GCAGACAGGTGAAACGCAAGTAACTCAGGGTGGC")
-0.714
>>> valueobserved("ACTAGCAGGCCAAGTTTCGGTCACTCAAACAAAG")
-0.738
>>> valueobserved("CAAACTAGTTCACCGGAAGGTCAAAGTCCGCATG")
0.566
>>> valueobserved("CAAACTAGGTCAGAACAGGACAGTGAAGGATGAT")
3.64
>>> valueobserved("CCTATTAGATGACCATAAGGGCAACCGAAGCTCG")
-0.21
>>> valueobserved("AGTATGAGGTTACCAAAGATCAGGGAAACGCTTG")
0.406
>>> valueobserved("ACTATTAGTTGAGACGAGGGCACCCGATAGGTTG")
0.797
>>> valueobserved("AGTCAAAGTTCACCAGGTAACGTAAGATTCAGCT")
1.39
>>> valueobserved("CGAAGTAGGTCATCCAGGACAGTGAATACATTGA")
2.28
>>> valueobserved("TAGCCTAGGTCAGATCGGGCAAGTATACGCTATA")
-0.848
>>> valueobserved("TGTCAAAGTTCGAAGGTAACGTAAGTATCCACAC")
0.86
>>> valueobserved("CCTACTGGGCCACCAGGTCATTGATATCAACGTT")
-0.298
>>> valueobserved("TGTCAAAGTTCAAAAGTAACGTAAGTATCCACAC")
2.39
>>> valueobserved("TGAATGAGGTTATAAGATCAGGCAACGTTGCAAA")
0.207
>>> valueobserved("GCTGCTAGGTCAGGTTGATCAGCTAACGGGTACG")
-0.366

FYI, the data here is from the supplement of paper PMC6555819.
